experimental.target: T1, HIDE1_HH-1 (Human ECD + human IgG1 Fc mutated C220S at hinge), without SP (human)
T1 construct: Batch #280 in the Serotec and phage display work; also called HIDE1 hECD-hIg; HIDE1 (H:H) recombinant Fc fusion protein
T1 sequence (chain, as listed by the source C220S C220S limits assumed): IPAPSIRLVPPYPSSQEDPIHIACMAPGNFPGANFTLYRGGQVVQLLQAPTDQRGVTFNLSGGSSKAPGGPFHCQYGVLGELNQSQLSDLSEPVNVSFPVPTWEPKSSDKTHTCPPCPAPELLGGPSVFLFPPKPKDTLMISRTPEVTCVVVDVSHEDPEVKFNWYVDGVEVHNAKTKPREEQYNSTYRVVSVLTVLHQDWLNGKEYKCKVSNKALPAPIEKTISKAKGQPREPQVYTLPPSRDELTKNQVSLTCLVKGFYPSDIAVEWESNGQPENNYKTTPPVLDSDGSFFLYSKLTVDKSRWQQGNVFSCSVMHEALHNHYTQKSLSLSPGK
experimental.protocol: SPR (ProteOn), Fab PPE over captured HIDE1-HH-1, 1:1 fit
parameter: log10 of koff (log10 of the value in s⁻¹)
Units before log transform: s⁻¹; reported quantity: koff; transform: log10.

Challenge: log10 of koff lookup needed for CPA.12.004 Fab (A04 S397-01.D06) (Fab, V domains shown, XOMA031 library Fab in periplasmic extract) VH: EVQLVETGGGLIQPGRSLRLSCVASDFRFSNHAMHWVRQAPGKELEWVAVISSDGSNRQYAYSVKGRFTISRDNSKNTLYLEMNILGPEDTAVYFCVRSHLGPEWYYGMDVWGQGTTVTVSS VL: DIQMTQSPSSLSTSVGDSVTITCRSSQSISTFLSWFQHKPGKAPNLLIYDASSLQSGVPSRFSGSGSGTDFTLTISSLQPEDFATYYCQQSDYLPFTFGPGTKVEIKR , thanks.
Response given: -2.48

Challenge: Try CPA.12.011 Fab (B03 S400-01.E01) (Fab, V domains shown, XOMA031 library Fab in periplasmic extract) VH: EVQLVESGGGLVQPGGTLRLSCVVSGFTFSSYAMSWVRQAPGKGLEWVSGISGSGGSTYISSGRTYRSTYYADSVKGRFTIARDNSENTLFLQLNSLRAEDTAIYYCAKVNSGEYAHTFDYWGQGTLVTVSS VL: DIQMTQSPSSLSASVGDRVTITCRASQGISNYLVWYQQKPGKAPKSLIYAASSLQSGVPSRFSGSGSGTDFTLTISSLQPEDFATYYCQQYNYYPITFGQGTRLEIKR next.
Response given: -3.72
